measured-target: KRASG12D (Homo sapiens, UniProt P01116, G12D)
Sequence (P01116 1-188 isoform P01116-2 G12D): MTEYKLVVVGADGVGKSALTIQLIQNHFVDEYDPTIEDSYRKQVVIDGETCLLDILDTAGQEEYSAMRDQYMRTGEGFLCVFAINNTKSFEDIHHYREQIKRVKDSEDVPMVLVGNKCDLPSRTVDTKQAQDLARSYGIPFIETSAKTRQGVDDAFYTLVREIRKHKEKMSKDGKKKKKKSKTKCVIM
assay-overview: Bio-Biochem-PPI-HTRF Ras-SOS1 interaction assay (KRAS G12D)
measurement-conditions: 5 nM
Method: The assay buffer can contain −5 mM HEPES pH 7.4, ˜150 mM NaCl, ˜ 1 mM DTT, 0.05% BSA and 0.0025% (v/v) Igepal. […] A suitable amount of the protein construct will depend on the range of activity or range of IC50 values being detected or under investigation. […] Upon incubation for about 10 minutes or longer, the fluorescence is measured with a M1000Pro plate reader (Tecan) using HTRF detection (excitation 337 nm, emission 1:620 nm, emission 2: 665 nm). […]
pIC50: −log10 of the molar value.
Documented pIC50 across a set of compounds

Memo: N#Cc1c(N)sc2c(F)ccc(-c3c(Cl)cc4c(N5CCCCC6(CN(C(=O)N7CC[C@H]7C#N)C6)C5)nc(OC[C@@]56CCCN5C[C@H](F)C6)nc4c3F)c12 [compound 224] , reported pIC50: > 5.30

Memo: N#Cc1c(N)sc2c(F)ccc(-c3c(Cl)cc4c(N5CCCCC6(CN(C(=O)CC7CCOCC7)C6)C5)nc(OC[C@@]56CCCN5C[C@H](F)C6)nc4c3F)c12 , reported pIC50: > 5.30

Memo: N#CCC(=O)N1CC2(CCCCN(c3nc(OC[C@@]45CCCN4C[C@H](F)C5)nc4c(F)c(-c5ccc(F)c6sc(N)c(C#N)c56)c(Cl)cc34)C2)C1 , reported pIC50: > 5.30

Memo: Nc1nc2c(-c3c(Cl)cc4c(N5CCC6(CC5)CN(S(=O)(=O)F)C6)nc(OC[C@@]56CCCN5C[C@H](F)C6)nc4c3F)ccc(F)c2s1 , reported pIC50: ≤ 5.30

Memo: C[C@H](Oc1nc(N2CCOC3(CNC3)C2)c2cc(Cl)c(-c3ccc(F)c4sc(N)c(C#N)c34)c(F)c2n1)[C@@H]1CCCN1C (single isomer, unassigned; atropisomer 1) [compound 128] , reported pIC50: ≤ 5.30

Memo: Cc1ccnc(C(C)C)c1-n1c(=O)nc(N2CCOC3(CNC3)C2)c2cc(F)c(-c3ccc(F)c4sc(N)c(C#N)c34)nc21 , reported pIC50: ≤ 5.30

Memo: CC(C)[C@H](N)C(=O)N1CC2(CCCCN(c3nc(OC[C@@]45CCCN4C[C@H](F)C5)nc4c(F)c(-c5ccc(F)c6sc(N)c(C#N)c56)c(Cl)cc34)C2)C1 , reported pIC50: > 5.30

* * *

Documented IC50 across a set of compounds
measured-target: KRASG12D (Homo sapiens, UniProt P01116, G12D)
assay-overview: Bio-Biochem-PPI-HTRF Ras-SOS1 interaction assay (KRAS G12D)
measurement-conditions: 5 nM
Procedure: The assay buffer can contain −5 mM HEPES pH 7.4, ˜150 mM NaCl, ˜ 1 mM DTT, 0.05% BSA and 0.0025% (v/v) Igepal. […] A suitable amount of the protein construct will depend on the range of activity or range of IC50 values being detected or under investigation. […] Upon incubation for about 10 minutes or longer, the fluorescence is measured with a M1000Pro plate reader (Tecan) using HTRF detection (excitation 337 nm, emission 1:620 nm, emission 2: 665 nm). […]

CC1(O)CCN(c2nc(OC[C@@]34CCCN3C[C@H](F)C4)nc3c(F)c(-c4ccc(F)c5sc(N)c(C#N)c45)c(Cl)cc23)CC2(CN(C(=O)[C@@H]3CC3(F)F)C2)C1 (stereo partly drawn) = < 5 µM
CN(C)C/C=C/C(=O)N1CC2(C1)CN(c1nc(OC[C@@]34CCCN3C[C@H](F)C4)nc3c(F)c(-c4ccc(F)c5sc(N)nc45)c(Cl)cc13)CCO2 = < 5 µM

Now consider the entry below.
Memo: N#Cc1c(N)sc2c(F)ccc(-c3c(Cl)cc4c(N5CCOC6(CN(C(=O)c7ccnn7C(F)(F)F)C6)C5)nc(OC[C@@]56CCCN5C[C@H](F)C6)nc4c3F)c12 , reported IC50: < 5 µM

Each recorded value in this set is attributed to patent US20240109918A1.
